System: HCC 2998
ASSAY REMARKS: NCI tumour cell line growth inhibition, 48 h
Activity calls are given as the source filed them. No stated cut-off is given here; in the data, active = GI50 up to about 1.1 µM and inactive = higher.
Overview of reported GI50 across a group of molecules:

Past entries and their recorded results:
# MOLECULE, GI50
measured = [
    ("C1CCC(N=C2N(C3CCCCC3)C(=NC3CCCCC3)N2C2CCCCC2)CC1", "> 100 µM (inactive)"),
    ("O=C(c1ccccc1)C(Nc1ccc2ccccc2c1)c1ccccc1 (stereo not drawn)", "20.7 µM (inactive)"),
]

Ask: Query the reported GI50 for HCC 2998; item: CCOC(=O)c1cc(C2CCN(c3ccccc3)C2=O)c(C(=O)/C=C(/C)O)[nH]1 (stereo not drawn)
Reply: > 100 µM (inactive)

Ask: Query the reported GI50 for HCC 2998; item: COc1ccc2c3c([nH]c2c1[N+](=O)[O-])C(C)N(Cc1ccc([N+](=O)[O-])cc1)CC3 (stereo not drawn)
Reply: 17.2 µM (inactive)

Ask: Query the reported GI50 for HCC 2998; item: CCc1cc(Cc2cc(Cl)c(NC(=O)C(=O)C3NC(=O)NC3=O)c(CC)c2)cc(Cl)c1NC(=O)C(=O)C1NC(=O)NC1=O (stereo not drawn)
Reply: 42.8 µM (inactive)

Ask: Query the reported GI50 for HCC 2998; item: CC(=O)OCC1OC(OCCCOP(=O)(OCCC#N)OCC2OC(n3cnc4c(N)ncnc43)C(OC(=O)c3ccccc3)C2OC(=O)c2ccccc2)C(OC(C)=O)C(OC(C)=O)C1OC(C)=O (stereo not drawn)
Reply: > 100 µM (inactive)

Ask: Query the reported GI50 for HCC 2998; item: "CC(=O)Nc1ccc(C(=O)N2N=C(C)/C(=C/c3cccc([N+](=O)[O-])c3)C2=O)cc1"
Reply: > 100 µM (inactive)

Ask: Query the reported GI50 for HCC 2998; item: "Cc1cc(=O)c2cc(/N=C/c3ccc([N+](=O)[O-])o3)ccc2o1"
Reply: > 100 µM (inactive)

Value source: ChEMBL document CHEMBL1201862
